Measured values drawn from the RNAGym collection of RNA variant scans (doi:10.7554/elife.80360) for this set.

B1: Hairpin Ribozyme (parent)
chain: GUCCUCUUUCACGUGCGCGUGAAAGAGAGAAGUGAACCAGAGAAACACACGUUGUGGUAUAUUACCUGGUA

variants of: B1; experiment: self-cleavage, relative activity (ratio to wild type); higher = more cleavage; co-transcriptional
Outcome measure: self-cleavage

Worked set:
GUCCUCUUUCACGUGAGCGUGCAAGAGAGAAGUGAACCAGAGAAACACACGUUGUGGUAUAUUACCUGGUA [C16A A22C] = 0.713
GUCCUCUUUCACGUGCGCGUGAAACAGAGAAGUGAACCAGAGAAACACACGUUGUCGUAUAUUACCUGGUA [G25C G56C] = 0.148
GUACUCUUUCCCGUGCGCGUGAAAGAGAGAAGUGAACCAGAGAAACACACGUUGUGGUAUAUUACCUGGUA [C3A A11C] = 0.618

Read the next record carefully.
Item GUCCUCUUUCACGUGCGCGUGAAAGAGAGAAGUGAACCAGAGAAACACACGUCGUGGUAUACUACCUGGUA [U53C U62C] has what recorded self-cleavage?
0.347
